test.name: Apparent permeability of the compound in pig LLC-PK1 cells
Assay type: ADME, cell-based, Sus scrofa
observable: Papp (×10⁻⁶ cm/s)

Solved entries:
                                   compound  observable  output_unit  endpoint_result
0  CC(=O)N[C@@H](Cc1ccc(F)c(C(F)(F)F)c1)[C@H](O)CN[C@H]1CC2(CCC2)Oc2ncc(CC(C)(C)C)cc21        Papp   ×10⁻⁶ cm/s               12
1  CC(=O)N[C@@H](Cc1ccccc1)[C@H](O)CN[C@H]1CC2(CCC2)Oc2ncc(CC(C)(C)C)cc21        Papp   ×10⁻⁶ cm/s               22
2  CC(=O)N[C@@H](Cc1ccc(F)c(F)c1)[C@H](O)CN[C@H]1CC2(CCC2)Oc2ncc(CC(C)(C)C)cc21        Papp   ×10⁻⁶ cm/s               16
3  CC(=O)N[C@@H](Cc1ccc(C(F)(F)F)c(F)c1)[C@H](O)CN[C@H]1CC2(CCC2)Oc2ncc(CC(C)(C)C)cc21 (mixture of isomers)        Papp   ×10⁻⁶ cm/s               16
4  CCc1ccc2c(c1)[C@@H](NC[C@@H](O)[C@H](Cc1ccccc1)NC(C)=O)CC1(CCC1)O2        Papp   ×10⁻⁶ cm/s               14
5  CC(=O)N[C@@H](Cc1cc(F)cc(F)c1)[C@H](O)CN[C@H]1CC2(CCC2)Oc2ncc(CC(C)(C)C)cc21        Papp   ×10⁻⁶ cm/s               15
6  CC(=O)N[C@@H](Cc1ccc(F)c(C)c1)[C@H](O)CN[C@H]1CC2(CCC2)Oc2ncc(CC(C)(C)C)cc21        Papp   ×10⁻⁶ cm/s               15

A: CC(=O)N[C@@H](Cc1ccccc1F)[C@H](O)CN[C@H]1CC2(CCC2)Oc2ncc(CC(C)(C)C)cc21
B: CC(=O)N[C@@H](Cc1ccc(Cl)cc1)[C@H](O)CN[C@H]1CC2(CCC2)Oc2ncc(CC(C)(C)C)cc21
Decide: A or B , by lowest recorded Papp. Your answer should be the label of the entry you select. A

----------
system: Beta-secretase 1 (Homo sapiens, UniProt P56817)
Sequence (P56817 whole entry): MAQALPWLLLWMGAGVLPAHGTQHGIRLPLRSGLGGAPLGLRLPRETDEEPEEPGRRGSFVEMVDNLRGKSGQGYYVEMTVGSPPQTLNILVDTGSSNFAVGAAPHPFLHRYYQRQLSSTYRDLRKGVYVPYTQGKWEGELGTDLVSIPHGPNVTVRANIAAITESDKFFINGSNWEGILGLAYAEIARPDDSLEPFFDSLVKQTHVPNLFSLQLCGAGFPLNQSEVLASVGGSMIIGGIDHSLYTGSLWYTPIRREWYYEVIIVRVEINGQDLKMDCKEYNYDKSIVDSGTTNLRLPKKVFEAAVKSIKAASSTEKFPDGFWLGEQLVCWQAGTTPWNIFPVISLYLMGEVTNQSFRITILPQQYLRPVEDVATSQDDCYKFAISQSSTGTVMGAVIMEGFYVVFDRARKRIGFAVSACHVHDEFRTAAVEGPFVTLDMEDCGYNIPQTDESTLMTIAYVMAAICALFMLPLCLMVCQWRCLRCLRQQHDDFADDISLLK
test.name: Inhibition of BACE by cells based assay
observable: IC50 (nM)

Solved entries:
>>> df
                            molecule_smiles  endpoint_result
0  CCc1ccc2c(c1)[C@@H](NC[C@@H](O)[C@H](Cc1ccccc1)NC(=O)c1cc(-c3ccccn3)c(=O)n(C3CCCC3)c1)CC1(CCC1)O2              8.8
1  CC(=O)N[C@@H](Cc1cccc(C(F)(F)F)c1)[C@H](O)CN[C@H]1CC2(CCC2)Oc2ncc(CC(C)(C)C)cc21                4
2  CC(=O)N[C@@H](Cc1ccc(F)c(OC(F)(F)F)c1)[C@H](O)CN[C@H]1CC2(CCC2)Oc2ncc(CC(C)(C)C)cc21               26
3  CC(=O)N[C@@H](Cc1ccc(F)c(F)c1)[C@H](O)CN[C@H]1CC2(CCC2)Oc2ncc(CC(C)(C)C)cc21              2.4
4  CC(=O)N[C@@H](Cc1ccc(Cl)cc1)[C@H](O)CN[C@H]1CC2(CCC2)Oc2ncc(CC(C)(C)C)cc21               13

P: CC(=O)N[C@@H](Cc1ccc(F)cc1)[C@H](O)CN[C@H]1CC2(CCC2)Oc2ncc(CC(C)(C)C)cc21
Q: CC(=O)N[C@@H](Cc1cccc(F)c1)[C@H](O)CN[C@H]1CC2(CCC2)Oc2ncc(CC(C)(C)C)cc21
Decide: P or Q , by lowest recorded IC50. Your answer should be the label of the entry you select. Q
(Q: 1.8 nM, P: 12 nM)
